- method-notes: gradient 5% acetonitrile 3 min, to 50% in 2 min, to 85% in 15 min, held 3 min, 100 µL/min
- recorded-conditions: column: Zorbax Extend-C18 2.1 x 50 mm; eluents: water / acetonitrile, 0.1% formic acid
measurement-kind: RP-LC retention time (s)

- COC(=O)c1sccc1NC(=O)C1CCN(Cc2nc(-c3ccc(OC)c(OC)c3)no2)CC1: 747
- CN1CCN(c2ccc(-c3ccc(NC(=O)Nc4cccc(Cl)c4)cc3)nn2)CC1: 588
- O=C(CSc1nnc(NC(=O)C2CC2)s1)NCc1ccc(F)cc1: 674
- O=C(CCn1nnc2cc(-c3noc(Cc4ccc(Cl)cc4)n3)ccc21)N1CCOCC1: 878
- Cc1ccc(NC(=O)Cn2c(=O)n(-c3ccc(F)cc3)c3ncccc32)cc1: 880
